Taken from ChEMBL document CHEMBL3853338.

Provide the recorded concentration at 1.5 h for the entries that follow.
assayMethodText: Drug level in Sprague-Dawley rat brain at 10 mg/kg, iv after 90 mins by LC-MS/MS analysis
Type: ADME, organism-based
measurementParameters: read-out: Drug uptake

Exam item: Any idea what its concentration at 1.5 h is? The compound is Cn1nnc2c(C(N)=O)ncn2c1=O [TEMOZOLOMIDE]
Marked response: 2300 ng/g

Exam item: Any idea what its concentration at 1.5 h is? The compound is Cc1ccc2[nH]c3c(c2c1)CN(CCNC(=O)c1ncn2c(=O)n(C)nnc12)CC3
Marked response: 142 ng/g

Exam item: Any idea what its concentration at 1.5 h is? The compound is Cc1ccc2c(c1)c1c(n2CCNC(=O)c2ncn3c(=O)n(C)nnc23)CCN(C)C1
Marked response: 243 ng/g

Exam item: Any idea what its concentration at 1.5 h is? The compound is CN1CCc2c(n(CCNC(=O)c3ncn4c(=O)n(C)nnc34)c3ccc(Cl)cc23)C1
Marked response: 162 ng/g

Exam item: Any idea what its concentration at 1.5 h is? The compound is Cn1nnc2c(C(=O)N3CCc4c(n(C5CC5)c5c(Cl)cc(Cl)cc45)C3)ncn2c1=O
Marked response: 4830 ng/g

Exam item: Any idea what its concentration at 1.5 h is? The compound is Cc1ccc2c(c1)c1c(n2C)CCN(CCNC(=O)c2ncn3c(=O)n(C)nnc23)C1
Marked response: 1700 ng/g

Exam item: Any idea what its concentration at 1.5 h is? The compound is Cc1ccc2c(c1)c1c(n2C)CN(C(=O)c2ncn3c(=O)n(C)nnc23)CC1
Marked response: 945 ng/g

* * *

assayMethodText: Plasma concentration in Sprague-Dawley rat plasma at 10 mg/kg, iv after 30 mins by LC-MS/MS analysis
Type: ADME, organism-based
Provide the recorded concentration at 0.5 h for the entries that follow.
Reply with just the number (in ng/mL).

Exam item: Any idea what its concentration at 0.5 h is? The compound is Cn1nnc2c(C(N)=O)ncn2c1=O [TEMOZOLOMIDE]
Marked response: 12800

Exam item: Any idea what its concentration at 0.5 h is? The compound is Cc1ccc2c(c1)c1c(n2CCNC(=O)c2ncn3c(=O)n(C)nnc23)CCN(C)C1
Marked response: 850

Exam item: Any idea what its concentration at 0.5 h is? The compound is Cc1ccc2[nH]c3c(c2c1)CN(CCNC(=O)c1ncn2c(=O)n(C)nnc12)CC3
Marked response: 1090

Exam item: Any idea what its concentration at 0.5 h is? The compound is CN1CCc2c(n(CCNC(=O)c3ncn4c(=O)n(C)nnc34)c3ccc(Cl)cc23)C1
Marked response: 399

Exam item: Any idea what its concentration at 0.5 h is? The compound is Cc1ccc2c(c1)c1c(n2C)CCN(CCNC(=O)c2ncn3c(=O)n(C)nnc23)C1
Marked response: 3630

Exam item: Any idea what its concentration at 0.5 h is? The compound is Cc1ccc2c(c1)c1c(n2C)CN(C(=O)c2ncn3c(=O)n(C)nnc23)CC1
Marked response: 483

Exam item: Any idea what its concentration at 0.5 h is? The compound is Cn1nnc2c(C(=O)N3CCc4c(n(C5CC5)c5c(Cl)cc(Cl)cc45)C3)ncn2c1=O
Marked response: 531
